List of pKd values.
test target: T1, 417N/484K/501Y RBD mutant (SARS-CoV-2, Wuhan-Hu-1 RBD backbone …, 417N | 484K | 501Y)
T1 construct: also called RBD KEN
assay comment: BLI
protocol conditions: both partners purified
pKd: −log10 of the molar value.

- binder: "V045 (antibody, V domains shown, IgG; donor BRA15; source: recombinant monoclonal IgG, produced and purified as previously described) VH: QVQLVQSGAEVKKPGASVKVSCKASTYTFTSYYIHWVRQAPGQGLEWMGIINPSGGSTSYAQNFQGRVTMTRDTSTSTVYMELSSLRSEDTAVYYCARGVLIPAAGGDFDYWGQGTLVTVSS VL: QSALTQPRSVSGSPGQSVTISCTGTSSDVGGYKYVSWYQQHPGKAPKLMIYDVSKRPSGVPDRFSGSKSGNTASLTISGLQAEDEADYYCCSYAGSYSWVFGGGTKLTVL"
  pKd: 8.55
- binder: "V028 (antibody, V domains shown, IgG; donor BRA14; source: recombinant monoclonal IgG, produced and purified as previously described) VH: QVQLVESGGGVVQPGRSLRLSCAASGFTFSSYGMHWVRQAPGKGLEWVAVVSFDGSDKYYADSVKGRFTISRDNSKNTLYLQMNSLRAEDTALYYCAKGGYSYAYPRYYFDYWGQGTLVTVSS VL: DIQMTQSPSSLSASVGDRVTITCQASQDISNYLNWYQQKPGKAPKLLIYDASNLETGVPSRFSGSGSGTDFTFTISSLQPEDIATYYCQQHDNLPITFGQGTRLEIK"
  pKd: 7.35
